tested on: HeLa Kyoto; assay: solubility in G1/S (NP-40 vs SDS abundance) (log2 ratio); higher = more soluble; conditions: cell cycle stage: G1/S
Label rule, in plain words: solubility in G1/S (log2) of 0.09 and up is MET, under 0.09 is NOT MET.

Some solved cases for reference:
INSERT INTO assay_data (record_sequence, assigned_class) VALUES
  ('MMPFGKISQQLCGVKKLPWSCDSRYFWGWLNAVFNKVDYDRIRDVGPDRAASEWLLRCGAMVRYHGQERWQKDYNHLPTGPLDKYKIQAIDATDSCIMSIGFDHMEGLEHVEKIRLCKCHYIEDDCLLRLSQLENLQKTILEMEIISCGNITDKGIIALRHLRNLKYLLLSDLPGVREKENLVQAFKTALPSLELKLQLK [ATP5S]', 'NOT MET'),
  ('MAITLEEAPWLGWLLVKALMRFAFMVVNNLVAIPSYICYVIILQPLRVLDSKRFWYIEGIMYKWLLGMVASWGWYAGYTVMEWGEDIKAVSKDEAVMLVNHQATGDVCTLMMCLQDKGLVVAQMMWLMDHIFKYTNFGIVSLVHGDFFIRQGRSYRDQQLLLLKKHLENNYRSRDRKWIVLFPEGGFLRKRRETSQAFAKKNNLPFLTNVTLPRSGATKIILNALVAQQKNGSPAGGDAKELDSKSKGLQWIIDTTIAYPKAEPIDIQTWILGYRKPTVTHVHYRIFPIKDVPLETDDLTTWLYQRFVEKEDLLSHFYETGAFPPSKGHKEAVSREMTLSNLWIFLIQSFAFLSGYMWYNIIQYFYHCLF [LPGAT1]', 'NOT MET'),
  ('MNSSTSTMSEEPDALSVVNQLRDLAADPLNRRAIVQDQGCLPGLILFMDHPNPPVVHSALLALRYLAECRANREKMKGELGMMLSLQNVIQKTTTPGETKLLASEIYDILQSSNMADGDSFNEMNSRRRKAQFFLGTTNKRAKTVVLHIDGLDDTSRRNLCEEALLKIKGVISFTFQMAVQRCVVRIRSDLKAEALASAIASTKVMKAQQVVKSESGEEMLVPFQDTPVEVEQNTELPDYLPEDESPTKEQDKAVSRVGSHPEGGASWLSTAANFLSRSFYW [ARMC1]', 'MET');

Okay, next one:
Does solubility in G1/S (log2) meet or surpass 0.09 for MALVSADSRIAELLTELHQLIKQTQEERSRSEHNLVNIQKTHERMQTENKISPYYRTKLRGLYTTAKADAEAECNILRKALDKIAEIKSLLEERRIAAKIAGLYNDSEPPRKTMRRGVLMTLLQQSAMTLPLWIGKPGDKPPPLCGAIPASGDYVARPGDKVAARVKAVDGDEQWILAEVVSYSHATNKYEVDDIDEEGKERHTLSRRRVIPLPQWKANPETDPEALFQKEQLVLALYPQTTCFYRALIHAPPQRPQDDYSVLFEDTSYADGYSPPLNVAQRYVVACKEPKKK [SGF29] ?
MET

###

system: HeLa Kyoto; assay: thermal stability score vs G1/S (z-score of summed log2 fold changes over temperatures); higher = more thermally stable than in G1/S; details: cell cycle stage: early G1 (4.5 h after nocodazole release)
READOUT_LABEL: thermal stability score
// return a plain number; no unit text

HeLa Kyoto assay, sequence MKLPARVFFTLGSRLPCGLAPRRFFSYGTKILYQNTEALQSKFFSPLQKAMLPPNSFQGKVAFITGGGTGLGKGMTTLLSSLGAQCVIASRKMDVLKATAEQISSQTGNKVHAIQCDVRDPDMVQNTVSELIKVAGHPNIVINNAAGNFISPTERLSPNAWKTITDIVLNGTAFVTLEIGKQLIKAQKGAAFLSITTIYAETGSGFVVPSASAKAGVEAMSKSLAAEWGKYGMRFNVIQPGPIKTKGAFSRLDPTGTFEKEMIGRIPCGRLGTVEELANLAAFLCSDYASWINGAVIKFDGGEEVLISGEFNDLRKVTKEQWDTIEELIRKTKGS [DECR1] , recorded thermal stability score = 0.81
